Target under test: D2 -receptors (Oryctolagus cuniculus)
Construct: perfused rabbit ear artery test; from tissue; host or cells: perfused rabbit ear artery (sympathetic nerve terminals)
Sequence (G1T1Q0 1-443): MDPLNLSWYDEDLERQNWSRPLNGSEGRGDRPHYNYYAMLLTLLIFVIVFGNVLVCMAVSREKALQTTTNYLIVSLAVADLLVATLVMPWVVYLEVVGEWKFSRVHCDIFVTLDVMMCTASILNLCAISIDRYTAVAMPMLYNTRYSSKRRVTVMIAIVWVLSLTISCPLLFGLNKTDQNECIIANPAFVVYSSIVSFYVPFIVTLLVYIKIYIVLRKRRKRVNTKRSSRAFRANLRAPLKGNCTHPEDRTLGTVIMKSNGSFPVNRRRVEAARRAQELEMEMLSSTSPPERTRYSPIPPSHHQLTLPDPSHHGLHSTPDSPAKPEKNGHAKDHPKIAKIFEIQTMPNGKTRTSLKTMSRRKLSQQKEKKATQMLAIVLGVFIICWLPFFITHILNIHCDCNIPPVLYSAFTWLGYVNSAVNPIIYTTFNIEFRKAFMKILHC
Protocol summary: perfused rabbit ear artery test for D2-agonist activity
Cond: perfused rabbit ear artery, D2 -agonist activity; read-out: EC50
pEC50: −log10 of the molar value.
Measurement kind: pEC50

Request the reported pEC50 associated with CCCN(CCC)CCc1ccc(O)c2[nH]c(=O)[nH]c12 ~8.05
